Tested on: B16-F10 cell line
procedureSummary: In vitro whitening efficacy: melanin content (Example 7)
Format: cell-based, mouse
setupConditions: Mus musculus, B16-F10; α-MSH 24 hr + TA 24 hr, 4-256 μM; read-out: EC50 value (reduction of melanin levels induced by α-MSH)
From the text: Table 23 below lists the study design for evaluating EC50 values of IM01, which contains 4-[(E)-2-(3,5-dihydroxyphenyl)ethenyl]benzene-1,3-diol. Table 25 below lists the study design for evaluating EC50 values of IM01, which contains 4-[(E)-2-(3,5-dihydroxyphenyl)ethenyl]benzene-1,3-diol.
pEC50: −log10 of the molar value.
valueType: pEC50

Supply reported pEC50 belonging to this molecule: Oc1cc(O)cc(/C=C/c2ccc(O)cc2O)c1 [IM01] ~4.39
